Catalogue of TGI readings, one per entry.
# Tested on: MDA-MB-468 breast
# protocol_notes: NCI tumour cell line growth inhibition, 48 h
property: TGI (µM)

| compound | target | unit_spec | sign | readout_value |
| --- | --- | --- | --- | --- |
| Nc1n[nH]c2cccc(C#Cc3cccc(NC(=O)Nc4cc(C(F)(F)F)cc(C(F)(F)F)c4)c3)c12 | MDA-MB-468 breast | µM | = | 6 |
| Nc1nc(Nc2ccccc2SSc2ccccc2Nc2nc(N)nc(C(Cl)(Cl)Cl)n2)nc(C(Cl)(Cl)Cl)n1 | MDA-MB-468 breast | µM | = | 29.1 |
| O=C(Nc1cccc(-n2cc(-c3ccncc3)c(-c3cc(O)cc(Cl)c3)n2)c1)c1cc(C(F)(F)F)cc(C(F)(F)F)c1 | MDA-MB-468 breast | µM | > | 100 |
| C=CC[Se]C(=O)c1ccc(C(=O)[Se]CC=C)s1 | MDA-MB-468 breast | µM | = | 1.62 |
| Cc1cc(N(CCCNc2ccnc3cc(Cl)ccc23)Cc2ccco2)nc(N2CCN(C)CC2)n1 | MDA-MB-468 breast | µM | = | 4.32 |
| CC1=C(CC(=O)c2cccc([N+](=O)[O-])c2)C(=O)c2ccccc2C1=O | MDA-MB-468 breast | µM | = | 5.9 |
| CC1OC(OC2C(O)CC(OC3C(O)CC(OC4CCC5(C)C(CCC6C5CC(O)C5(C)C(C7=CC(=O)OC7)CCC65O)C4)OC3C)OC2C)CC(O)C1O (stereo not drawn) | MDA-MB-468 breast | µM | = | 0.364 |
| CCc1cccc(C)c1NC(=O)c1sc2nc3c(cc2c1N)C(=O)CCC3 | MDA-MB-468 breast | µM | = | 60.5 |
